Test system: P. falciparum NF54-pfs16-GFP early (I-III) stage gametocytes
Test: relative % inhibition of viable gametocyte number; higher = more gametocytocidal
Experimental Conditions: 5 µM; stage: early (I-III) gametocyte; incubation 72 h
Parameter: relative % inhibition
Please state the value followed by its unit.

Compound: COc1ccccc1CNC(=O)CCn1c(=O)[nH]c2ccsc2c1=O
relative % inhibition: 2.5%
--
Compound: CCn1c(SCC(=O)Nc2cc(C(F)(F)F)ccc2Cl)nc2ccccc2c1=O
relative % inhibition: 5.95%
--
Compound: CCOc1ccc(CCNC(=O)c2cccs2)cc1OCC
relative % inhibition: 30.1%
--
Compound: CCOC(=O)c1ccc2nc(-c3ccccc3)cc(O)c2c1
relative % inhibition: 2.35%
--
Compound: CCOC(=O)c1cnc2ccc(CC)cc2c1O
relative % inhibition: 42.6%

Alright, here's another compound for you.
Q: Value lookup for relative % inhibition; key = Cc1sc2ncnc(Sc3nc4ccccc4[nH]3)c2c1C
A: 91.1%

###

System: P. falciparum NF54-pfs16-GFP late (IV-V) stage gametocytes
Test: relative % inhibition of viable gametocyte number; higher = more gametocytocidal
Experimental Conditions: 0.5 µM; stage: late (IV-V) gametocyte; incubation 72 h
Parameter: relative % inhibition (%)
# unit: % | format: bare number

Compound: CCCc1c(CC)c(=N)c2ccccc2n1C
Unit Abbreviation: %
relative % inhibition: 7.6

Q: Recorded relative % inhibition for OC(CNC1CCCCC1)Cn1c2ccccc2c2ccccc21 (stereo not drawn) , please?
A: 49.9

Q: Entry COc1ccc(C(=O)NC(c2ccc(Cl)cc2Cl)c2cc(Cl)c3cccnc3c2O)cc1 (stereo not drawn) has what relative % inhibition?
A: 50.9

###

Tested on: P. falciparum NF54-pfs16-GFP early (I-III) stage gametocytes
Test: relative % inhibition of viable gametocyte number; higher = more gametocytocidal
Experimental Conditions: 5 µM; stage: early (I-III) gametocyte; incubation 72 h
Rule: label 1 for relative % inhibition not less than 40%, label 0 for anything less.

Q: Reported relative % inhibition at or above 40%? CC1CN(C(=O)c2sc3ccccc3c2Cl)CC(C)O1 (stereo not given)
A: label 0

Q: Please tell me: is the molecule CCN1CCN(c2cc(C)c3cc(NC(=O)c4ccc(OC)c(OC)c4)ccc3n2)CC1 at or over 40% in terms of relative % inhibition?
A: label 0

Q: Evaluate COc1cccc(NC(=O)Cn2c(C)c(C#N)c3ccccc32)c1 : relative % inhibition at minimum 40%?
A: label 1

Q: Confirm if relative % inhibition reported for the molecule CCC(c1ccccc1)c1nn2c(-c3cccs3)nnc2s1 (stereo not given) is 40% or above.
A: label 0

Q: Hello, I need to know if OC1CCCCC1C1(NC(=S)Nc2ccccc2)CCCCC1 (stereo not given) has measured relative % inhibition not below 40%. Thanks!
A: label 1

###

Tested on: P. falciparum NF54-pfs16-GFP early (I-III) stage gametocytes
Test: relative % inhibition of viable gametocyte number; higher = more gametocytocidal
Experimental Conditions: 0.5 µM; stage: early (I-III) gametocyte; incubation 72 h
Parameter: relative % inhibition (%)
Numeric answer only, unit % assumed.

Consider the following illustrative entries.
Molecule: COc1ccc(C2C(C(=O)Nc3cccc(OC)c3)c3ccccc3C(=O)N2C2CCCCC2)cc1 (centres undefined)
Unit Abbreviation: %
relative % inhibition: 15.6
//
Molecule: Cc1ccc(C(=O)c2oc3ccc4c(C)cc(=O)oc4c3c2C)cc1
Unit Abbreviation: %
relative % inhibition: 8.47
//
Molecule: CN(C)CCCNc1c2ccccc2nc2ccccc12
Unit Abbreviation: %
relative % inhibition: 85.1

Here's the next entry for you.
Q: Consider the molecule shown here: Cc1cc(Nc2ccc3ccccc3c2)n2ncnc2n1 What is its recorded relative % inhibition?
A: -10.4
